Data origin: patent US12012446B2

Target: T1, EBV gp350 stably expressed on CHO cells (Epstein-Barr virus, UniProt P03200)
T1 construct: stably co-transfected with full-length pCAGGS-gp350/220 and pCI-puro vector; expressed in transfected cells; host or cells: CHO cells
T1 sequence (P03200 whole entry): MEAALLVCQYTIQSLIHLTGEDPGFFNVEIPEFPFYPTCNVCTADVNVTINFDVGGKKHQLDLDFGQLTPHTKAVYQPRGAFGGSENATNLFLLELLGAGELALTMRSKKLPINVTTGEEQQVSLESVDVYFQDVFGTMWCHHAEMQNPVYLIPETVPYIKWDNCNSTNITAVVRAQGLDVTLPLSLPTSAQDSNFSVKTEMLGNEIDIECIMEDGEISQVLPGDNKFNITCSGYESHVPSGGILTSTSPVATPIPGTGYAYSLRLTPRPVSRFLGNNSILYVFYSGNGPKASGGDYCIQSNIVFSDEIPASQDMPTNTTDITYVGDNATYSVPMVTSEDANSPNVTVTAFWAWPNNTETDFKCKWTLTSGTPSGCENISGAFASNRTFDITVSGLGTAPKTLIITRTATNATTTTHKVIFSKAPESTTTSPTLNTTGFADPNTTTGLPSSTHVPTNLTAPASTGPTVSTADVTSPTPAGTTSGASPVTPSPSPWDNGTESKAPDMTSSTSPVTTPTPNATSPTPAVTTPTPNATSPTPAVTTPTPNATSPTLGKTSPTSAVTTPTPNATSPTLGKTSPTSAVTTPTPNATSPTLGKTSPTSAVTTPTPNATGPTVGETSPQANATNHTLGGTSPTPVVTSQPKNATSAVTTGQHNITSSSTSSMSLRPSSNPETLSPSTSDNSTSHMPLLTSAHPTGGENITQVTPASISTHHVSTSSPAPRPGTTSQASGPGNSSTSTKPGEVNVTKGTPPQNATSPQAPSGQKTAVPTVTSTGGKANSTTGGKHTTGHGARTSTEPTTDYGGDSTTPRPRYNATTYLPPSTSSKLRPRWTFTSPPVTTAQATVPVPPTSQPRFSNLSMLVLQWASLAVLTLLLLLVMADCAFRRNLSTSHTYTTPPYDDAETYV
Test: Epitope mapping by competitive cell binding assay with biotinylated mAbs
Conditions: unlabeled mAb 125 μg/ml; biotinylated m72A1 1 μg/ml
Record form. Attribute: % inhibition of biotinylated nAbs (biotinylated m72A1). Fill in for each entry.
Respond numerically; units are % and should not be typed.

Please look up its % inhibition of biotinylated nAbs (biotinylated m72A1): HB10: murine anti-EBV gp350 mAb, IgG1 κ; SEQ ID NO: 118 / 119; non-nAb (protein, heavy chain mAb HB10; light chain mAb HB10, murine anti-EBV gp350 mAb, IgG1 κ; non-nAb) chain 1: LSLPVSLGDQASISCRSSQSIVHSNGNTYLEWYLQKAGQSPKLLIYKVSNRFSGVPDRFGGSGSGTDFTLKISRVEAEDLGVYYCFQGSHVPYTFGGGTKLEIKRADAAPTV chain 2: SSLSASLGDRVTISCRASQDIGNYLNWYQQKPDGTVKLLIYYTSRLHSGVPSRFSGSGSGTDYSLTISNLEEEDIATYFCQQGNTLPPTFGGGTKLEIKRADAAPTV
16

Note, next up: h72A1: humanized 72A1 IgG1; heavy and light chain SEQ ID NOs: 180 and 181 (antibody, V domains shown) VH: EVQLVESGGGLVQPGGSLRLSCAASGSSFTDYTMNWMRQSPGKGLEWIGLINPYNGGTRYADSVKGRATLSLDKSKNTAYLQMNSLRAEDTAIYYCAGGLRRVNWFAYWGQGTLVTVSS VL: DAQLTQSPILLSASVGDRVTITCRSSTGAVTTSNYANWVQERTNGSFRGLIGGTNNRVPGVPSRFSGSLSGDDATLTISSLQPEDEADYFCVLWHSNHWVFGAGTKVEIKR
93

Try this molecule too: m72A1: EBV anti-gp350 neutralizing mouse antibody purified from HB168 hybridoma (ATCC); SEQ ID NO: 100 / 101 (antibody, V domains shown, heavy chain mAb 72A1; light chain mAb 72A1) VH: PELVKPGTSMKISCKASGSSFTDYTMNWMKQSHGKNLEWIGLINPYNGGTRYNQKFKGKATLTLDKSSSTAYMEVLSLTSEDSAVYYCAGGLRRVNWFAYWGQGTLVSVSAAKTTPPSVYPLAPGSAAQTNSMVTLG VL: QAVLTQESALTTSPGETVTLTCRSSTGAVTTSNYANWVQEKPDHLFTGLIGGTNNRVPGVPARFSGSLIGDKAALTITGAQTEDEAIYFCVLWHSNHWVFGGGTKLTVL
94
